# protocol: Calcein cytotoxicity assay
# Format: cell-based
# cond: human, lox melanoma cells; 2 hours, calcein AM assay; read-out: 2 Hr Tox LD50
Entries and their CC50 at 2 h
Your answer is read as µM, so omit the unit and give the number.

compound="COc1ccc(C2=C3CC4CCC(C3c3ccccc32)N4C)cc1 (stereo not drawn)" unitssymbol=µM readoutvalue=138
compound="CN1C2CCC1C1C(=C(c3ccc(Cl)cc3)c3ccccc31)C2 (stereo not drawn)" unitssymbol=µM readoutvalue=85.3
compound="CN1C2CCC1C1C(=C(c3cccc(C(F)(F)F)c3)c3ccccc31)C2 (stereo not drawn)" unitssymbol=µM readoutvalue=29.7

## Task CC50 at 2 h for COc1ccc(C2C3=C(c4ccccc42)C2CCC(C3)N2)cc1 (stereo not drawn) ?
## Result 67.7

## Task CC50 at 2 h for CN1C2CCC1C1C(=C(c3cccc(Cl)c3)c3ccccc31)C2 (stereo not drawn) ?
## Result 34.6

## Task CC50 at 2 h for CN1C2CCC1C1C(=C(c3ccc(F)cc3)c3cc(Cl)ccc31)C2 (stereo not drawn) ?
## Result 21.8

## Task CC50 at 2 h for CN1C2CCC1C1C(=C(c3ccccc3)c3cc(F)ccc31)C2 (stereo not drawn) ?
## Result 55.9

## Task CC50 at 2 h for COc1ccc(C2C3=C(c4ccccc42)C2CCC(C3)N2C)cc1 (stereo not drawn) ?
## Result 63.6

## Task CC50 at 2 h for CN1C2CCC1C1C(=C(c3ccc(Cl)cc3)c3cc(F)ccc31)C2 (stereo not drawn) ?
## Result 17.4

## Task CC50 at 2 h for CN1C2CCC1C1C(=C(c3cccc(F)c3)c3ccc(F)cc31)C2 (stereo not drawn) ?
## Result 64.3

## Task CC50 at 2 h for CN1C2CCC1C1C(=C(c3cccc(F)c3)c3cc(F)ccc31)C2 (stereo not drawn) ?
## Result 29.5

## Task CC50 at 2 h for CSc1ccc(C2=C3CC4CCC(C3c3ccccc32)N4C)cc1 (stereo not drawn) ?
## Result 43.3

## Task CC50 at 2 h for c1ccc(C2=C3CC4CCC(N4)C3c3ccccc32)cc1 (stereo not drawn) ?
## Result 66.7

## Task CC50 at 2 h for CN1C2CCC1C1C(=C(c3ccc(F)cc3)c3cc(F)ccc31)C2 (stereo not drawn) ?
## Result 36.9

## Task CC50 at 2 h for CN1C2CCC1C1C(=C(c3ccc(F)cc3)c3ccccc31)C2 (stereo not drawn) ?
## Result 116

## Task CC50 at 2 h for CN1C2CCC1C1=C(C2)C(c2ccc(F)cc2)c2ccccc21 (stereo not drawn) ?
## Result 103

## Task CC50 at 2 h for Cc1ccc(C2=C3CC4CCC(C3c3ccccc32)N4C)cc1 (stereo not drawn) ?
## Result 58.4

## Task CC50 at 2 h for COc1ccc(C2=C3CC4CCC(N4)C3c3ccccc32)cc1 (stereo not drawn) ?
## Result 74.5

* * *

# Tested on: LOX human melanoma cell adhesion to human fibronectin
# protocol: LOX melanoma cell adhesion to fibronectin
# Type: cell-based
# cond: Homo sapiens, LOX, 50 μM; read-out: % Inhibition at 50 μM
Classify by measured inhibition at 50 µM: True if it is equal to or exceeds 30%, False if it is smaller.

Observe how each entry below is paired with its result.
compound="COc1ccc(C2C3=C(c4ccccc42)C2CCC(C3)N2C)cc1 (stereo not shown)" assignedlabel=True
compound="CN1C2CCC1C1C(=C(c3cccc(C(F)(F)F)c3)c3ccccc31)C2 (stereo not shown)" assignedlabel=True
compound="COc1ccc(C2(O)c3cc(Cl)ccc3C3C4CCC(CC32)N4C)cc1 (stereo not shown)" assignedlabel=False
compound="CN1C2CCC1C1C(=C(c3ccccc3C(F)(F)F)c3ccccc31)C2 (stereo not shown)" assignedlabel=True
compound="CN1C2CCC1C1C(=C(c3cccc(Cl)c3)c3ccccc31)C2 (stereo not shown)" assignedlabel=True
compound="CN1C2CCC1C1c3ccccc3C(O)(c3cccc(C(F)(F)F)c3)C1C2 (stereo not shown)" assignedlabel=False

## Task Is the recorded value of inhibition at 50 µM equal to or greater than 30% for this compound? COc1ccc(C2C3=C(c4ccccc42)C2CCC(C3)N2C)cc1OC (stereo not shown)
## Result False

## Task Is the recorded value of inhibition at 50 µM equal to or greater than 30% for this compound? CN1C2CCC1C1c3ccc(Cl)cc3C(O)(c3ccc(F)cc3)C1C2 (stereo not shown)
## Result True

## Task Is the recorded value of inhibition at 50 µM equal to or greater than 30% for this compound? CN1C2CCC1C1c3cc(Cl)ccc3C(O)(c3ccc(F)cc3)C1C2 (stereo not shown)
## Result False

## Task Is the recorded value of inhibition at 50 µM equal to or greater than 30% for this compound? CN1C2CCC1C1c3ccccc3C(c3ccccc3)C1C2 (stereo not shown)
## Result False
